# target_under_test: Cdk9/cyclinT1 (Homo sapiens, UniProt P50750)
# Sequence (P50750 whole entry): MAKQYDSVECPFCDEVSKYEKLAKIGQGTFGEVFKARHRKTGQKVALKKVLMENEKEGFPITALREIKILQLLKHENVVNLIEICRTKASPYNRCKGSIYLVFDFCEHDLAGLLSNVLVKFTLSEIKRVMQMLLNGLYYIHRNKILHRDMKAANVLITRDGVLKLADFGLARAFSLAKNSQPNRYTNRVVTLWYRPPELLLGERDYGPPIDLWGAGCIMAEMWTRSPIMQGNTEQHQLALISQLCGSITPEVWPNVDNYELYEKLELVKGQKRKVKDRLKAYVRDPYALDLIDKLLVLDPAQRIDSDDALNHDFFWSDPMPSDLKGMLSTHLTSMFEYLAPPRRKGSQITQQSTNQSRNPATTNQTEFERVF
# Sequence (O60563 whole entry partner): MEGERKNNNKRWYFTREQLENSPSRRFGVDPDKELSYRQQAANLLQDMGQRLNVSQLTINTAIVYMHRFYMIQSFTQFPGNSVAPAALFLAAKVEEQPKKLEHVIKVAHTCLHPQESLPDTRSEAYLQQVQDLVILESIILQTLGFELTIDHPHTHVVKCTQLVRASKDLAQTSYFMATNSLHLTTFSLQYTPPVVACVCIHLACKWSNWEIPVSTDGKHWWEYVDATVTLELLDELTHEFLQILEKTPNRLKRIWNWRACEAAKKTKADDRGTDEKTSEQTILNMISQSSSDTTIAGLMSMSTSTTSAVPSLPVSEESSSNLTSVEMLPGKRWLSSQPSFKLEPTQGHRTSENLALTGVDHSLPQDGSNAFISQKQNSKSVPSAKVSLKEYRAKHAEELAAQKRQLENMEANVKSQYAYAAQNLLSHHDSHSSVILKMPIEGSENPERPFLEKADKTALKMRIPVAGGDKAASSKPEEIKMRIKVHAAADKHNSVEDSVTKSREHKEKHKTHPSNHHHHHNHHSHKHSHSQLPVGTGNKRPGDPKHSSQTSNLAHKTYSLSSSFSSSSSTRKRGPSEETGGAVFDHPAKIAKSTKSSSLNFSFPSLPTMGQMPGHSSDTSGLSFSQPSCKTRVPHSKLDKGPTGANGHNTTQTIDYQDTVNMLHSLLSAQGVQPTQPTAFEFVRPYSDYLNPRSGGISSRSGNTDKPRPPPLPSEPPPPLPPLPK
# experiment: Cdk9/cyclinT1 IMAP protocol (fluorescence polarization)
# measurement_conditions: IC-50, CDK9; lower limit of assay 0.0005 micromolar
pIC50: −log10 of the molar value.
Can you tell me pIC50 for the items I'm about to list?

INPUT: Test system Cdk9/cyclinT1 (Homo sapiens, UniProt P50750); read-out pIC50; what value for `COC[C@@H](C)N[C@H]1CC[C@H](Nc2cc(-c3cccc(NCC4(C#N)CC4)n3)c(F)cn2)CC1` ?
OUTPUT: > 9.30

INPUT: Checklist item: pIC50 tested on Cdk9/cyclinT1 (Homo sapiens, UniProt P50750), entry `COCCN[C@H]1CC[C@H](Nc2cc(-c3nc(NCC4(C#N)CCOCC4)cnc3Cl)c(Cl)cn2)CC1` , value?
OUTPUT: > 9.30

INPUT: Missing value: pIC50, Cdk9/cyclinT1 (Homo sapiens, UniProt P50750), entry CO[C@@H]1C[C@@H](Nc2cc(-c3cccc(NCC4(C#N)CCOCC4)n3)c(Cl)cn2)CC[C@@H]1N (single isomer, unassigned) . Fill in?
OUTPUT: ≥ 9.30

###

# target_under_test: Cdk9/cyclinT1 (Homo sapiens)
# experiment: Cdk9/cyclinT1 IMAP protocol (fluorescence polarization)
# measurement_conditions: IC-50, CDK9; lower limit of assay 0.0005 micromolar
Would you mind telling me the reported IC50 of each entry?

INPUT: Returns the measured IC50 for the input molecule. Input: `CC(C)N[C@H]1CC[C@H](Nc2cc(-c3cccc(NCC4(C#N)CCOCC4)n3)c(Cl)cn2)CC1`
OUTPUT: < 0.5 nM

INPUT: For the molecule `N#CC1(CNc2cccc(-c3cc(N[C@H]4CC[C@H](N)CC4)ncc3F)n2)CCOCC1` , what IC50 is on record?
OUTPUT: < 0.5 nM

INPUT: # IC50 lookup, item `N#CC1(CNc2cccc(-c3cc(N[C@H]4CC[C@H](N[C@H]5CCOC5)CC4)ncc3Cl)n2)CCOCC1`
OUTPUT: < 0.5 nM

INPUT: Entry `CC(C)(CO)N[C@H]1CC[C@H](Nc2cc(-c3cccc(NCC4(C#N)CCOCC4)n3)c(Cl)cn2)CC1` : reported IC50 = ?
OUTPUT: < 0.5 nM

###

# target_under_test: Cdk9/cyclinT1 (Homo sapiens, UniProt P50750)
# experiment: Cdk9/cyclinT1 Alpha Screen protocol
# Type: biochemical
# Parameters: Full length wild type Cdk9/cyclin T1 is purchased from Invitrogen; purchased Invitrogen PV4131
# measurement_conditions: neutral species; individual determinations; read-out: CDK9_cyclinT1_AS2_IC50
result_type: IC50 (nM)
Give your result in nM as a bare value.

INPUT: Name the reported IC50 value associated with the molecule `COC[C@@H](C)N[C@H]1CC[C@H](Nc2cc(-c3cncc(OCC4(C#N)CC4)n3)c(F)cn2)CC1`
OUTPUT: 0.378

INPUT: Requested read-out: IC50. Entry: `COC(C)(C)CN[C@H]1CC[C@H](Nc2cc(-c3cccc(NCC4(C#N)CCOCC4)n3)c(Cl)cn2)CC1`
OUTPUT: 0.281

INPUT: Quick one: IC50 for `N#CC1(COc2cncc(-c3cc(N[C@H]4CC[C@H](NCCF)CC4)ncc3Cl)n2)CCOCC1` ?
OUTPUT: 0.429

INPUT: Data request, read-out IC50, for `COC[C@@H](C)N[C@H]1CC[C@H](Nc2cc(-c3cccc(NCC4(C#N)CCOCC4)n3)c(F)cn2)CC1`
OUTPUT: 0.235
